Tested on: M. tuberculosis H37Rv growth inhibition with meropenem
Experiment: dose response, H37Rv, with and without meropenem (AID 434987);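 further: growth over 7 days at 37 °C before Alamar Blue read on day 9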
Details: M. tuberculosis H37Rv growth inhibition; measured here: IC50 without meropenem
RECORDED_METRIC: IC50

Solved cases below.
COMPOUND	RECORDED_METRIC	RESULT
Cc1cc(=O)n2c(-c3ccccc3C)n[nH]c2n1	IC50	62.4 µM
COC(=O)c1cccc(NC(=S)NCCC2=CCCCC2)c1	IC50	> 100 µM
COC(=O)Cn1c2ccccc2c2nc(C)sc21	IC50	25.4 µM
CCOc1cc(/C=N/Nc2nc(-c3cccs3)c(NC(C)=O)s2)ccc1O	IC50	> 100 µM
CCSc1nc2ccccc2c(=O)n1CCc1ccc(OC)c(OC)c1	IC50	> 100 µM

The record that follows has no IC50 shown yet.
Reported IC50 for CCC(CC)Nc1ccc(C(CC(N)=O)NC(=O)c2ccccc2)cc1[N+](=O)[O-] (stereo unspecified) was > 100 µM

###

Hi there, I'd appreciate the recorded IC90 for every entry that follows.
Test system: M. tuberculosis H37Rv growth inhibition with meropenem
Test: dose response, H37Rv, with and without meropenem (AID 434987);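 further: growth over 7 days at 37 °C before Alamar Blue read on day 9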
Conditions: measured here: IC90 with meropenem

Solved cases below.
MOLECULE	SYSTEM_NAME	IC90
COc1cccc(/C=N/NC(N)=S)c1OS(=O)(=O)c1ccccc1	M. tuberculosis H37Rv growth inhibition with meropenem	> 25 µM
O=C(CSc1nnc(-c2cnccn2)n1Cc1ccco1)Nc1ccc(Br)cc1	M. tuberculosis H37Rv growth inhibition with meropenem	> 100 µM
CCOC(=O)C1CSC(CC(=O)Nc2ccc(Cl)c(Cl)c2)C(=O)N1 (configuration not stated)	M. tuberculosis H37Rv growth inhibition with meropenem	35.4 µM

For each of the items listed, what is its IC90?
1. CCOC(=O)c1ccc(-c2ccc(C=O)o2)cc1
2. CN(C)c1ccc(/C=N/NC(N)=S)cc1[N+](=O)[O-]
3. COCCNC(C(=O)Nc1ccc(C)cc1[N+](=O)[O-])c1ccccc1 (configuration not stated)
4. Clc1ccc(-c2csc3ncnc(N4CCc5ccccc5C4)c23)cc1
5. CCc1ccc(NC(=S)Nc2ccc(S(=O)(=O)Nc3ncccn3)cc2)cc1
6. COc1ccc(/C=N/Nc2nc(-c3ccc(C)cc3)c(NC(C)=O)s2)cc1
7. COc1ccc(-c2cc(-c3ccc(OC)cc3)nc(-c3ccc4c(c3)NC(=O)CO4)c2)cc1
8. CCOC(=O)c1nn(-c2ccccc2)c(C#N)c1NC(=O)c1nn(CC)cc1Br

Output:
1: > 100 µM; 2: > 50 µM; 3: > 100 µM; 4: > 100 µM; 5: > 100 µM; 6: > 100 µM; 7: > 100 µM; 8: > 100 µM

###

Test system: M. tuberculosis H37Rv growth inhibition with meropenem
Assay: dose response, H37Rv, with and without meropenem (AID 434987);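 further: growth over 7 days at 37 °C before Alamar Blue read on day 9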
Conditions: measured here: IC90 with meropenem
RECORDED_METRIC: IC90

MOLECULE	IC90
CN(C)S(=O)(=O)c1ccc(C(=O)OCC2CC2(Cl)Cl)cc1 (stereo unspecified)	> 100 µM
O=C1CCNc2c(Cl)cccc21	> 100 µM

For each of the items listed, what is its IC90?
1. Cc1cccc(Nc2nnc(SCC(=O)Nc3ncc(C(F)(F)F)cc3Cl)s2)c1C
2. Cc1nnc(SCC2=C(C(=O)O)N3C(=O)C(NC(=O)COc4ccc(F)cc4)C3SC2)s1 (stereo unspecified)
3. O=C(COc1ccc2ccccc2c1)Nc1nc2ccccc2[nH]1
4. CN(c1ccc(OCC(=O)Nc2ccc3[nH]c(=O)[nH]c3c2)cc1)S(=O)(=O)c1ccc(Cl)cc1

Output:
21.5 µM
9.33 µM
> 100 µM
> 100 µM

Attribution: PubChem BioAssay AID434987
